Readings of growth inhibition for the listed molecules
Experiment: NCI Yeast Anticancer Drug Screen. Data for the mec2-1 strain (AID 157)
Conditions: S. cerevisiae mec2-1 strain, at 50.0 µM, stronger effect = higher value
The panel holds about 79,000 compounds, 15% with a hit somewhere; the sample as a whole holds those more often. Where a SMILES comes first, the peptide text is derived from it. [ ]: non-standard residue; d: D form. The star is where a group is joined. ξ: configuration not given here. ξD = NC(CC(=O)O)C(=O)O; Boc = CC(C)(C)OC(=O)*; Aib = CC(C)(N)C(=O)O; OtBu = CC(C)(C)O*
assay-metric: growth inhibition (%)

INSERT INTO measurements (molecule, assay_metric, quantitative_readout) VALUES
  ('Cc1nnc2n(c1=O)CCN2C', 'growth inhibition', 0.1),
  ('CCCCCCCCCCCC(=O)c1c(O)cccc1O', 'growth inhibition', -16.1),
  ('COC(=O)Nc1c2ccccc2c(NC(=O)OC)c2ccccc12', 'growth inhibition', 13),
  ('CCOC(=O)c1cc2cc(Br)ccc2[nH]1', 'growth inhibition', -24),
  ('O=[N+]([O-])c1ccc(N/N=C(/c2ccccc2)C2CCCC2)c([N+](=O)[O-])c1', 'growth inhibition', 18.6),
  ('S=C(Nc1ccccc1)Nc1ccc(NC(=S)Nc2ccccc2)cc1', 'growth inhibition', -0.25),
  ('O=C(CCCCCCCCC(=O)OCCCn1cc(C(=O)NC(=O)OCc2ccccc2)c(=O)[nH]c1=O)OCCCn1cc(C(=O)NC(=O)OCc2ccccc2)c(=O)[nH]c1=O', 'growth inhibition', -41.7),
  ('COC/C=C\COC', 'growth inhibition', 5),
  ('O=C(c1ccccc1)C(c1ccccc1)n1nc2c(c1-c1ccccc1)CCCC2 (stereo unspecified)', 'growth inhibition', 87.2),
  ('CC(=O)NC(CCCNC(=O)OCc1ccccc1)C(=O)NCc1ccccc1 (stereo unspecified)', 'growth inhibition', -20.9),
  ('O=C1OC2C(I)C3C(C4CCCCC4)C1C23 (stereo unspecified)', 'growth inhibition', -3.85),
  ('NC(=O)NC(=O)OCC(F)(F)C(F)(F)C(F)(F)C(F)(F)C(F)(F)C(F)(F)C(F)(F)F', 'growth inhibition', 9.9),
  ('COC(=O)C(C)(C)NC(=O)C(C)(C)NC(=O)C(CC(=O)OC(C)(C)C)NC(=O)OC(C)(C)C (stereo unspecified) (Boc-[ξD](OtBu)-[Aib]-[Aib]-OMe)', 'growth inhibition', -16.1),
  ('CC(=O)OCC1OC(n2ncnc2CI)C(OC(C)=O)C(OC(C)=O)C1OC(C)=O (stereo unspecified)', 'growth inhibition', 8.35),
  ('CN1N(c2ccccc2)C(=O)C2=NC=C(C(=O)c3ccccc3)C(=N)C21C (stereo unspecified)', 'growth inhibition', -1.6),
  ('CC12CC3(C)CC(C)(C1)CC(C(NC(C)(C)C)C(=O)O)(C2)C3 (stereo unspecified)', 'growth inhibition', 20.1),
  ('O=C(Oc1ccccc1)c1ccc(C(=O)Oc2ccccc2)cc1', 'growth inhibition', 28.7),
  ('CCCCC(O)CNc1ccccc1 (stereo unspecified)', 'growth inhibition', 14.7),
  ('O=C(O)C(Cc1ccc2c(c1)CCC2)(Cc1ccc2c(c1)CCC2)C(=O)O', 'growth inhibition', 13.3),
  ('CCOC(=O)c1ccc(N(N=O)C(C)C)cc1', 'growth inhibition', 5.15),
  ('CC1OC1P(=O)(O)O (stereo unspecified)', 'growth inhibition', -5.9),
  ('NC(N)=NS(=O)(=O)c1ccc(N2C(=O)CC3(CCCC3)C2=O)cc1', 'growth inhibition', -2.25),
  ('CCOc1ccc(/C=C2N=C(/C=C/c3ccccc3)OC\2=O)cc1', 'growth inhibition', 14.8),
  ('C=CCc1cc(OC)ccc1O', 'growth inhibition', 36.8),
  ('CN(C)C(=O)c1ccc[n+](CC(=O)NCc2ccccc2)c1', 'growth inhibition', -7.35),
  ('COC(=O)CCc1nc2ccccc2c(=O)[nH]1', 'growth inhibition', 1.05),
  ('CCCCOC(=O)C(=O)C(CC(CC)C(=O)c1ccccc1)C(=O)C=C(C)C (stereo unspecified)', 'growth inhibition', -8.5),
  ('O=C(Nc1ncnc2nc(-c3ccccc3)[nH]c12)c1ccccc1', 'growth inhibition', -16.9),
  ('CS(C)=O.[Cl-].[Cl-].[NH-]CC(O)C[N-]CC(O)CN.[Pt+4] (stereo unspecified)', 'growth inhibition', -19.7),
  ('C=C(Br)CNCC(=C)Br', 'growth inhibition', 7.25),
  ('CCSCC1(c2ccc(OC)cc2)NC(=O)NC1=O (stereo unspecified)', 'growth inhibition', 2.65),
  ('Cc1ncc(COP(=O)(O)O)c(C)c1O', 'growth inhibition', -10.1),
  ('Cc1ccc(N=Nc2ccc(C)cc2NC(=O)Nc2cc([N+](=O)[O-])ccc2F)cc1', 'growth inhibition', -16.1),
  ('C/C=C\COC(=O)C(C)OC(=O)OCC (stereo unspecified)', 'growth inhibition', 11.8),
  ('COC(=O)c1ccccc1N=Cc1ccc(N(CCC#N)S(=O)(=O)c2ccccc2)cc1', 'growth inhibition', 13.3),
  ('Cc1ccc2c(c1)N=C(Nc1ccccc1)N=S2(C)=O (stereo unspecified)', 'growth inhibition', -18.7),
  ('CC1(C)CC(=O)C(C)(CCc2ccccc2)C(=O)C1', 'growth inhibition', 8.9),
  ('CC(=O)N(C)N=Nc1ccc(C(F)(F)F)cc1', 'growth inhibition', -12.7),
  ('O=C(N(Cc1ccccc1)c1ccccc1)C(Cl)(Cl)Cl', 'growth inhibition', 76.8),
  ('CC(C)(CO[C@H]1C[C@H]2CC[C@@]1(C)C2(C)C)[N+](=O)[O-]', 'growth inhibition', -7),
  ('O=C1c2ccccc2-c2oc(=O)c3ccccc3c21', 'growth inhibition', -1.5),
  ('CC(=O)Nc1cc(C(C)=O)ccc1O', 'growth inhibition', -0.5),
  ('O=C(/C=C/c1ccc(Cl)cc1)c1ccccc1O', 'growth inhibition', 9.8),
  ('COC(=O)[C@H](Cc1ccc(OC(C)(C)C)cc1)N[C@H](C)C(=O)N[C@@H](Cc1ccccc1)C(=O)OCc1ccccc1', 'growth inhibition', 35.1),
  ('Cc1ccccc1Nc1n[nH]c(=O)n1-c1ccccc1C', 'growth inhibition', 6.65),
  ('O=C(O)c1ccnc(-c2ccc(Cl)cc2)c1', 'growth inhibition', 5.75);
